Each recorded value in this set is attributed to patent US8633312B2.

# MEASURED TARGET: p38 MAP kinase (Homo sapiens)
# PROTOCOL DESCRIPTION: Inhibition of p38 MAP kinase, IC50 relative to SB-203580
# Type: biochemical
# MEASUREMENT CONTEXT: relative activity = ratio IC50 (SB-203580)/IC50 (test compound); the higher the value, the more active
MEASURE NAME: p38 MAP kinase
// keep it numeric: no unit symbol after the value

Check out these entries, answers already filled in.
INSERT INTO measurements (chemical_string, observed) VALUES
  ('O=C1c2ccc(Nc3ccc(F)cc3F)cc2CCc2c(OCCN3CCOCC3)cccc21', 1.26),
  ('COc1ccc2c(c1)C(=O)c1ccc(Nc3ccccc3OC)cc1CC2', 0.11),
  ('Nc1ccc2c(c1)COc1cc(Nc3ccccc3N)ccc1C2=O', 0.93),
  ('COc1ccc2c(c1)CCc1cc(Nc3ccc(F)cc3F)ccc1C2=O', 2.60),
  ('COc1ccc2c(c1)C(=O)c1ccc(Nc3ccc(F)cc3F)cc1CC2', 1.59);

What reported p38 MAP kinase corresponds to `O=C1c2ccc(Nc3ccc(F)cc3F)cc2CCc2cc(OCCN3CCOCC3)ccc21` on p38 MAP kinase (Homo sapiens)?
2.53

What reported p38 MAP kinase corresponds to `CC1(C)OC[C@H](COc2ccc3c(c2)C(=O)c2ccc(Nc4ccccc4N)cc2CC3)O1` on p38 MAP kinase (Homo sapiens)?
1.31

What reported p38 MAP kinase corresponds to `Nc1ccccc1Nc1ccc2c(c1)CCc1ccc(OC[C@@H](O)CO)cc1C2=O` on p38 MAP kinase (Homo sapiens)?
1.54

What reported p38 MAP kinase corresponds to `O=C1c2ccc(Nc3ccc(F)cc3F)cc2CCc2c(OC[C@H](O)CO)cccc21` on p38 MAP kinase (Homo sapiens)?
1.76

What reported p38 MAP kinase corresponds to `O=C1c2ccc(Nc3ccc(F)cc3F)cc2CCc2ccc(OCCCO)cc21` on p38 MAP kinase (Homo sapiens)?
4.85

###

As shown below, each of these molecules has a reported melting point value.

Data request, read-out melting point, for `Nc1ccc2c(c1)COc1cc(Nc3ccccc3N)ccc1C2=O`
203.9 °C

Data request, read-out melting point, for `Nc1ccc2c(c1)COc1cc(Nc3ccc(C(F)(F)F)cc3N)ccc1C2=O`
93.9 °C

Data request, read-out melting point, for `Nc1ccc2c(c1)COc1cc(Nc3ccc(F)cc3N)ccc1C2=O`
194.5 °C

Data request, read-out melting point, for `Nc1ccc2c(c1)COc1cc(Nc3ccc(F)cc3F)ccc1C2=O`
184 to 193 °C

Data request, read-out melting point, for `COc1ccccc1Nc1ccc2c(c1)OCc1cc(N)ccc1C2=O`
68.4 °C

Data request, read-out melting point, for `O=C1c2ccc(NC(=O)N3CCOCC3)cc2COc2cc(Nc3ccc(F)cc3F)ccc21`
244.3 °C

Data request, read-out melting point, for `O=C1c2ccc(-n3cnnn3)cc2COc2cc(Nc3ccc(F)cc3F)ccc21`
59 °C

###

As shown below, each of these molecules has a reported p38 MAP kinase value.
# MEASURED TARGET: p38 MAP kinase (Homo sapiens, UniProt Q16539)
# Sequence (Q16539 whole entry): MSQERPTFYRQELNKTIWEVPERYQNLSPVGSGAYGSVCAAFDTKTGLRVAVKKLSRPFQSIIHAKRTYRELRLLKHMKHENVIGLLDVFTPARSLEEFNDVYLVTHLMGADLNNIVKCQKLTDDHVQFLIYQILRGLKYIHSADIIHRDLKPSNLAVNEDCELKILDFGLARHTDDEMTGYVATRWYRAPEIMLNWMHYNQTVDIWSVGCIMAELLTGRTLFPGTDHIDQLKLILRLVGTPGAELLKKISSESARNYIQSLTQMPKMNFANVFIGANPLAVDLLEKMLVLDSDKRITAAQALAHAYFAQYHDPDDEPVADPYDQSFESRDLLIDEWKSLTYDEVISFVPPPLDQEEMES
# PROTOCOL DESCRIPTION: Inhibition of p38 MAP kinase, IC50 relative to SB-203580
# Format: biochemical
# MEASUREMENT CONTEXT: relative activity = ratio IC50 (SB-203580)/IC50 (test compound); the higher the value, the more active
// keep it numeric: no unit symbol after the value

Check out these entries, answers already filled in.
INSERT INTO measurements (chemical_string, observed) VALUES
  ('O=C1c2ccc(Nc3ccc(F)cc3F)cc2CCc2ccc(OC3CCOCC3)cc21', 0.74),
  ('COc1ccccc1Nc1ccc2c(c1)OCc1cc(N)ccc1C2=O', 0.14),
  ('O=C1c2ccc(Nc3ccc(F)cc3F)cc2CCc2cc(OCCO)ccc21', 2.60),
  ('O=C1c2ccc(Nc3ccc(F)cc3F)cc2CCc2c(O)cccc21', 2.26);

Data request, read-out p38 MAP kinase, for `COc1ccc2c(c1)C(=O)c1ccc(Nc3ccccc3N)cc1CC2`
1.00

Data request, read-out p38 MAP kinase, for `Nc1ccc2c(c1)COc1cc(Nc3ccc(F)cc3N)ccc1C2=O`
1.15

Data request, read-out p38 MAP kinase, for `O=C1c2ccc(NC(=O)N3CCOCC3)cc2COc2cc(Nc3ccc(F)cc3F)ccc21`
0.51

Data request, read-out p38 MAP kinase, for `COc1ccc2c(c1)C(=O)c1ccc(Nc3ccc(F)cc3N)cc1CC2`
0.92

Data request, read-out p38 MAP kinase, for `O=C1c2ccc(Nc3ccc(F)cc3F)cc2CCc2ccc(O)cc21`
2.03
